Test system: liver hepatocellular carcinoma cell line SNU-449
ASSAY: MTS analysis, growth inhibition (GI50)
Format: cell-based
EXPERIMENTAL_CONTEXT: Homo sapiens, SNU-449; MTS analysis; read-out: GI50, SNU-449 liver hepatocellular carcinoma cell line
READOUT_TYPE: GI50 (µM)
Hi! Could you send only the number? It should be in µM, unit omitted.

Use the examples below as a reference point.
>  <MOLECULE>
S=C=NCc1ccccc1 [BITC, benzyl isothiocyanate]

>  <GI50 [µM]>
9.58

$$$$
>  <MOLECULE>
S=C=NCCc1ccccc1 [PEITC, phenylethyl isothiocyanate, reference compound]

>  <GI50 [µM]>
7.58

$$$$
>  <MOLECULE>
CNC(=O)c1cc(Oc2ccc(NC(=O)Nc3ccc(Cl)c(C(F)(F)F)c3)c(F)c2)ccn1

>  <GI50 [µM]>
4.54

$$$$

Lookup: Item under review: CNC(=O)c1cc(Oc2ccc(NC(=O)Nc3ccc(Cl)c(C(F)(F)F)c3)cc2)ccn1 . Reported GI50?
Found: 2.34

Where do the numbers come from? From patent US20240139142A1.
